The origin of these recorded values is patent US20070202045A1.

Biological target: T1, rabbit albumin (rabbit, UniProt P49065 25-608)
T1 construct: bought (Sigma); also called rabbit SA; BuSA
T1 sequence (P49065 25-608 limits assumed): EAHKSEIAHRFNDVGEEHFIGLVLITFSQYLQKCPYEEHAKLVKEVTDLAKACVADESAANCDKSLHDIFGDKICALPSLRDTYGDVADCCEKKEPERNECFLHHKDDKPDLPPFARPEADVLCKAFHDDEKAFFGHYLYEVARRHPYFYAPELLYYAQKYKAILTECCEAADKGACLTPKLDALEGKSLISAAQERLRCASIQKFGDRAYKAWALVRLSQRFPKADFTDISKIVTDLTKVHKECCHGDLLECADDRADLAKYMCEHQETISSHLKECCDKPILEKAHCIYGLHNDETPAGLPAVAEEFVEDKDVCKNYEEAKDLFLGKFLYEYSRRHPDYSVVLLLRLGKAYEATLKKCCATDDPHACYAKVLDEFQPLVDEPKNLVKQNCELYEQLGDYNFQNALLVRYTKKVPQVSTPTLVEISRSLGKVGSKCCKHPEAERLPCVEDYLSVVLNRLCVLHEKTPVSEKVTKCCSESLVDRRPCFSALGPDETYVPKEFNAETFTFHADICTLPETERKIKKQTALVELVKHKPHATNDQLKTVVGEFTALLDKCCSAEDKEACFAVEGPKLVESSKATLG
Assay: SA08b peptide competition ELISA
Bridges are numbered along the chain shown (N, C = ends). Where no end group is shown, it is not given here.
value_kind: IC50 (µM)
Numbers only, in µM.

INSERT INTO assay_data (binder, numeric_value) VALUES
  ('GEWWEDICLPRWGCLWEEED-NH2 (disulfide 8-14 (inferred), synthetic) [SA15]', 0.013),
  ('Ac-RLIEDICLPRWGCLWEDD-NH2 (disulfide 7-13 (inferred), synthetic; disulfide oxidised) [SA21]', 0.27);

Please find the next binder below.
Give the measured IC50 of QRLMEDICLPRWGCLWEDDF-NH2 (disulfide 8-14, synthetic; disulfide oxidised) [SA06] .
0.13
